- Tested on: NCI-60 cancer cell lines
- Assay name: NCI-60 cancer cell line drug screen (GI50, MGM)
- Format: cell-based, human
- Experimental context: Homo sapiens, K562, Leukemia, K-562; read-out: Antiproliferative Activities [GI50 (μM)]
- Protocol: Cancer cells were incubated with the test compounds at five concentrations ranging from 100 μM to 10 nM for 48 h. […] The approximate average of GI50 values across the entire panel of NCI-60 cancer cell lines for each compound was recorded as the MGM value.
As shown below, each of these compounds has a reported GI50 value.

Input line: So what's the measured GI50 for this one? COc1cnc2c(c1)C(=O)c1c-2n(CCCNC2=NCCS2)c(=O)c2cc([N+](=O)[O-])ccc12 [Compound 12]
Output line: 0.11 µM

Input line: So what does the record say about GI50 for COc1cc2c(cc1O)-c1c(c3ccc([N+](=O)[O-])cc3c(=O)n1CCCn1ccnc1)C2=O [Compound 37] ?
Output line: 2.25 µM

Input line: Endpoint output: GI50 of COc1cc2c3c(n(CCCNC4=NCCS4)c(=O)c2cc1OC)-c1cc2c(cc1C3=O)OCO2 [Compound 50] . Value?
Output line: < 0.01 µM

Input line: Can you look up the measured GI50 of CN(C)CCCn1c2c(c3cccnc3c1=O)C(=O)c1ccccc1-2 [Compound 20] for me?
Output line: 1.42 µM

----------
- System: NCI-60 cancer cell lines
- Assay name: NCI-60 cancer cell line drug screen (GI50, MGM)
- Assay type: cell-based, human
- Experimental context: Homo sapiens, NCI-H522, Non-Small Cell Lung Cancer, NCI-H522; read-out: Antiproliferative Activities [GI50 (μM)]
Measured GI50 values are reported for all entries that follow.
Use µM as the unit, but write only the number.

Some molecules with recorded GI50:
COc1cc2c(cc1O)-c1c(c3ccc([N+](=O)[O-])cc3c(=O)n1CCCN)C2=O :: 0.78
CNCCCn1c2c(c3ccc(Cl)cc3c1=O)C(=O)c1cc(OC)cnc1-2 :: 0.37
COc1cnc2c(c1)C(=O)c1c-2n(CCCNC(C)C)c(=O)c2cc(F)ccc12 :: 0.04
COc1cnc2c(c1)C(=O)c1c-2n(CCCNCCN2CCOCC2)c(=O)c2cc([N+](=O)[O-])ccc12 :: 0.08
CNCCCn1c2c(c3ccc(F)cc3c1=O)C(=O)c1cc(OC)cnc1-2 :: 0.06
COc1cc2c(=O)n(CCCN3CCOCC3)c3c(c2cc1OCCCN1CCCC1)C(=O)c1cc2c(cc1-3)OCO2 :: 0.04
CNCCCn1c2c(c3ccc([N+](=O)[O-])cc3c1=O)C(=O)c1cc(OC)cnc1-2 :: 0.08
COc1cc2c3c(n(CCCN4CCC(N)CC4)c(=O)c2cc1OC)-c1cc2c(cc1C3=O)OCO2 :: 13.1

Shifting focus to the molecule that follows.
Input line: Can you share its GI50? I mean this molecule: COc1cnc2c(c1)C(=O)c1c-2n(CCCN2CCCC2)c(=O)c2cc([N+](=O)[O-])ccc12
Output line: 0.06

----------
- Tested on: NCI-60 cancer cell lines
- Assay name: NCI-60 cancer cell line drug screen (GI50, MGM)
- Assay type: cell-based, human
- Experimental context: Homo sapiens, OVCAR-5, Ovarian Cancer, OVCAR-5; read-out: Antiproliferative Activities [GI50 (μM)]
- Description: Cancer cells were incubated with the test compounds at five concentrations ranging from 100 μM to 10 nM for 48 h. […] The approximate average of GI50 values across the entire panel of NCI-60 cancer cell lines for each compound was recorded as the MGM value.
log10 of GI50 overview
A value of 2 here means GI50 of 100 in µM, since values are log10.

Sample answers from the record:
CNCCCn1c2c(c3ccc(Cl)cc3c1=O)C(=O)c1cc(OC)cnc1-2 [Compound 3] :: 0.23
CN(C)CCCn1c2c(c3ccc(-c4ccn[nH]4)cc3c1=O)C(=O)c1ccccc1-2 [Compound 30] :: 0.18

Input line: Fill in: log10 of GI50 of COc1cc2c(cc1O)-c1c(c3ccc([N+](=O)[O-])cc3c(=O)n1CCCN)C2=O [Compound 38] is ___
Output line: 0.22

Input line: So what's the measured log10 of GI50 for this one? COc1cnc2c(c1)C(=O)c1c-2n(CCCN2CCCC2)c(=O)c2cc([N+](=O)[O-])ccc12 [Compound 9]
Output line: -0.80

Input line: // lookup log10 of GI50 for CN(C)CCCn1c2c(c3cccnc3c1=O)C(=O)c1ccccc1-2 [Compound 20]
Output line: 0.39

Input line: Give the measured log10 of GI50 of COc1cc2c(cc1O)-c1c(c3ccc([N+](=O)[O-])cc3c(=O)n1CCCN1CCOCC1)C2=O [Compound 36] .
Output line: 0.56

----------
- Test system: NCI-60 cancer cell lines
- Assay name: NCI-60 cancer cell line drug screen (GI50, MGM)
- Format: cell-based, human
- Experimental context: Homo sapiens, TK-10, Renal Cancer, TK-10; read-out: Antiproliferative Activities [GI50 (μM)]
GI50 under 1 µM gets Yes, anything at or over 1 µM gets No.

Field: example entries. Status: answers known.
CN(C)CCCn1c2c(c3ccc(N4CCNCC4)cc3c1=O)C(=O)c1ccccc1-2 [Compound 25] :: No
COc1cc2c(cc1O)-c1c(c3ccc([N+](=O)[O-])cc3c(=O)n1CCCn1ccnc1)C2=O [Compound 37] :: No
CNCCCn1c2c(c3ccc([N+](=O)[O-])cc3c1=O)C(=O)c1cc(OC)cnc1-2 [Compound 10] :: Yes

Input line: Say whether its GI50 is strictly beneath 1 µM. Entry: COc1cc2c(cc1O)-c1c(c3ccc([N+](=O)[O-])cc3c(=O)n1CCCN1CCOCC1)C2=O [Compound 36]
Output line: No

Input line: Does CN(C)CCCn1c2c(c3cccnc3c1=O)C(=O)c1ccccc1-2 [Compound 20] have GI50 strictly under 1 µM?
Output line: No

Input line: Report whether reported GI50 is lower than 1 µM (strictly) for COc1cc2c3c(n(CCCn4ccnc4)c(=O)c2cc1OC)-c1cc2c(cc1C3=O)OCO2 [Compound 42]
Output line: No

Input line: Please determine if CNCCCn1c2c(c3ccc(F)cc3c1=O)C(=O)c1cc(OC)cnc1-2 [Compound 6] is below 1 µM in terms of GI50.
Output line: Yes

----------
- Tested on: NCI-60 cancer cell lines
- Assay name: NCI-60 cancer cell line drug screen (GI50, MGM)
- Format: cell-based, human
- Experimental context: Homo sapiens, KM12, Colon Cancer, KM12; read-out: Antiproliferative Activities [GI50 (μM)]
Attribute measured: GI50 (µM)
# number only, unit µM dropped from output

Example results:
O=C1c2ccccc2-c2c1c1ccccc1c(=O)n2CCCNCCO :: 0.19
COc1cnc2c(c1)C(=O)c1c-2n(CCCNC(C)C)c(=O)c2cc(F)ccc12 :: 0.17

Would you kindly look at the next entry?
Input line: Can you share its GI50? I mean this molecule: CN(C)CCCn1c2c(c3ccc(-c4ccn[nH]4)cc3c1=O)C(=O)c1ccccc1-2
Output line: 0.53

----------
- Test system: MYC protein expression in MCF-7 breast cancer cells
- Assay name: Western blotting of MYC protein level in MCF-7 cells
- Format: cell-based, human
- Experimental context: Homo sapiens, MCF7; western blotting, MCF-7 cells, 0.5, 1, 2, and 4 μM, 24 hours; read-out: MYC Inhibition
Below, each of the compounds is paired with its reported minimal effective concentration value.

CN(C)CCCn1c2c(c3ccc(N4CCNCC4)cc3c1=O)C(=O)c1ccccc1-2 :: > 4 µM
CNCCCn1c2c(c3ccc(F)cc3c1=O)C(=O)c1cc(OC)cnc1-2 :: 0.5 to 1 µM
COc1cc2c3c(n(CCCn4ccnc4)c(=O)c2cc1OC)-c1cc2c(cc1C3=O)OCO2 :: 0.5 to 1 µM
COc1cnc2c(c1)C(=O)c1c-2n(CCCNC(C)C)c(=O)c2cc(F)ccc12 :: 0.5 to 1 µM
COc1cc2c3c(n(CCCNCCO)c(=O)c2cc1OC)-c1cc2c(cc1C3=O)OCO2 :: 0.5 to 1 µM

Please examine the following record next.
Input line: Given O=C1c2ccccc2-c2c1c1ccccc1c(=O)n2CCCNCCO , state its recorded minimal effective concentration.
Output line: 0.5 to 1 µM

----------
- System: NCI-60 cancer cell lines
- Assay name: NCI-60 cancer cell line drug screen (GI50, MGM)
- Type: cell-based, human
- Experimental context: Homo sapiens, OVCAR-4, Ovarian Cancer, OVCAR-4; read-out: Antiproliferative Activities [GI50 (μM)]
log10 of GI50 values by entry
Values reflect log10 of reported GI50 (µM).

# count of solved cases: 6
O=C1c2ccccc2-c2c1c1ccccc1c(=O)n2CCCNCCO :: -0.64
COc1cc2c(cc1O)-c1c(c3ccc([N+](=O)[O-])cc3c(=O)n1CCCN)C2=O :: 0.05
CNCCCn1c2c(c3ccc([N+](=O)[O-])cc3c1=O)C(=O)c1cc(OC)cnc1-2 :: -0.77
CN(C)CCCn1c2c(c3cccnc3c1=O)C(=O)c1ccccc1-2 :: 0.29
CNCCCn1c2c(c3ccc(Cl)cc3c1=O)C(=O)c1cc(OC)cnc1-2 :: 0.10
COc1cnc2c(c1)C(=O)c1c-2n(CCCN2CCCC2)c(=O)c2cc([N+](=O)[O-])ccc12 :: -1.10

Turning now to a further molecule:
Input line: Form field - read-out: log10 of GI50; system: NCI-60 cancer cell lines; submitted item: COc1cc2c(cc1O)-c1c(c3ccc([N+](=O)[O-])cc3c(=O)n1CCCN1CCOCC1)C2=O
Output line: 0.11
